- System: LOU-NH91
- EXPERIMENTAL PROTOCOL: relative viability (nuclei count vs DMSO), 5 days (fraction); higher = more cells survive
- REPORTED CONDITIONS: first compound 0.006325 µM
The following molecules are shown together with reported relative viability values.
MEASURED METRIC: relative viability

[[record]]
molecule = "CCNC(=O)c1noc(-c2cc(C(C)C)c(O)cc2O)c1-c1ccc(CN2CCOCC2)cc1 [Luminespib] + Cc1nc(NC(=O)N2CCC[C@H]2C(N)=O)sc1-c1ccnc(C(C)(C)C(F)(F)F)c1 [Alpelisib] (partner 2 µM)"
numeric_result = 0.646

[[record]]
molecule = "CCNC(=O)c1noc(-c2cc(C(C)C)c(O)cc2O)c1-c1ccc(CN2CCOCC2)cc1 [Luminespib] + CC(=O)Nc1cccc(-n2c(=O)n(C3CC3)c(=O)c3c(Nc4ccc(I)cc4F)n(C)c(=O)c(C)c32)c1 [Trametinib] (partner 0.02 µM)"
numeric_result = 0.775

[[record]]
molecule = "CCNC(=O)c1noc(-c2cc(C(C)C)c(O)cc2O)c1-c1ccc(CN2CCOCC2)cc1 [Luminespib] + CC1(C)CCC(c2ccc(Cl)cc2)=C(CN2CCN(c3ccc(C(=O)NS(=O)(=O)c4ccc(N[C@H](CCN5CCOCC5)CSc5ccccc5)c(S(=O)(=O)C(F)(F)F)c4)cc3)CC2)C1 [Navitoclax] (partner 0.5 µM)"
numeric_result = 0.707

[[record]]
molecule = "CCNC(=O)c1noc(-c2cc(C(C)C)c(O)cc2O)c1-c1ccc(CN2CCOCC2)cc1 [Luminespib] + CC(C)C[C@H](NC(=O)[C@H](Cc1ccccc1)NC(=O)c1cnccn1)B(O)O [Bortezomib] (partner 0.002 µM)"
numeric_result = 0.484

